TARGET_OF_ASSAY: YES1 kinase (Homo sapiens, UniProt P07947)
Sequence (P07947 whole entry): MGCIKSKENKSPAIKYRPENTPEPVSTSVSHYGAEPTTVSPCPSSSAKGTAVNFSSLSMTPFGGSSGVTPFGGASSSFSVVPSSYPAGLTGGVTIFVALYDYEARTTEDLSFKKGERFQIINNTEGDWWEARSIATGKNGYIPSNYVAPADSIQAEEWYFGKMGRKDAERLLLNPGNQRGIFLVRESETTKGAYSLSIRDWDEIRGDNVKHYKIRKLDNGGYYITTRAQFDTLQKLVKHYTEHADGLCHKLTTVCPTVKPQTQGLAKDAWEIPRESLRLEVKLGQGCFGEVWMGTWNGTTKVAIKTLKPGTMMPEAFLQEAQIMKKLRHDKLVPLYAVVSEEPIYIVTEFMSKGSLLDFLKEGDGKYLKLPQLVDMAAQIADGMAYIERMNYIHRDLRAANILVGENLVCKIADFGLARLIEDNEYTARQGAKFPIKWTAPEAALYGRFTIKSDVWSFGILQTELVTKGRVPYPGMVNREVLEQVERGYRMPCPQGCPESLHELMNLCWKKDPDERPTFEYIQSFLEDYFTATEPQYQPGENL
Label Yes when IC50 < 100 nM; otherwise No.

The following molecules have reported results that may help.
[
  {
    "MOLECULE": "CCOP1(=O)CCN(c2ccc(Nc3ncc4c(=O)n5n(c4n3)-c3cccc(n3)C(C)(O)CCC=CC5)cc2F)CC1 (stereo not drawn) [Compound 180]",
    "ASSIGNED_CLASS": "Yes"
  },
  {
    "MOLECULE": "CCOP1(=O)CCN(c2ccc(Nc3ncc4c(=O)n5n(c4n3)-c3cccc(n3)C(C)(O)CCC=CC5)cc2)CC1 (stereo not drawn) [Compound 181]",
    "ASSIGNED_CLASS": "No"
  },
  {
    "MOLECULE": "Cc1cc(Nc2ncc3c(=O)n4n(c3n2)-c2cccc(n2)C(C)(O)CCC=CC4)ccc1OC1CCN(CC(F)(F)F)CC1 (stereo not drawn) [Compound 206]",
    "ASSIGNED_CLASS": "No"
  },
  {
    "MOLECULE": "[2H]C([2H])([2H])N1CCC(Oc2ccc(Nc3ncc4c(=O)n5n(c4n3)-c3cccc(n3)[C@@](C)(O)CCC=CC5)cc2C)CC1 (single isomer, unassigned) [Compound 171B]",
    "ASSIGNED_CLASS": "No"
  },
  {
    "MOLECULE": "CN1CC2CC(Oc3ccc(Nc4ncc5c(=O)n6n(c5n4)-c4cccc(n4)C(C)(O)CCC=CC6)cc3C(F)(F)F)CC2C1 (stereo not drawn) [Compound 223]",
    "ASSIGNED_CLASS": "Yes"
  },
  {
    "MOLECULE": "CN1CCN(C(=O)c2ccc(Nc3ncc4c(=O)n5n(c4n3)-c3cccc(n3)C(C)(O)CC/C=C\\C5)cc2)CC1 (stereo not drawn) [Compound 185]",
    "ASSIGNED_CLASS": "No"
  },
  {
    "MOLECULE": "CCOP1(=O)CCN(c2ccc(Nc3ncc4c(=O)n5n(c4n3)-c3cccc(n3)C(C)(O)CCC=CC5)cc2C)CC1 (racemic) [Compound 182]",
    "ASSIGNED_CLASS": "Yes"
  },
  {
    "MOLECULE": "Cc1cc(Nc2ncc3c(=O)n4n(c3n2)-c2cccc(n2)[C@@](C)(O)CCC=CC4)ccc1OC1CCN(C)CC1 [Compound 134]",
    "ASSIGNED_CLASS": "Yes"
  }
]

In: Quick check: does Cc1cc(Nc2ncc3c(=O)n4n(c3n2)-c2cccc(n2)C(C)(O)CCC=CC4)ccc1OC1(C)CCN(C)CC1 (stereo not drawn) [Compound 89] have IC50 under 100 nM?
Out: Yes
